# System: MS2 coat protein
# EXPERIMENT SUMMARY: apparent KD of MS2 coat protein; designed switch direction (-1 OFF switch, 1 ON switch): -1; higher = weaker reporter binding
# EXPERIMENTAL CONTEXT: Eterna round: R95; input ligand: FMN 200 uM
Criterion: apparent KD of MS2 coat protein meeting or surpassing 50 nM. Met: Criterion met. Not met: Criterion not met.

record_sequence="GGCAAUAUGUAGGAUAUCGUAUUGGAAACAAUACGAGAAGGGCAAACAUGAGGAUCACCCAUGUUCCUUAAGCC [Mat - Exclusion 6 - Eli Mod - D68] (puzzle: Exclusion 6)" category_label="Criterion not met"
record_sequence="GAAGAGACAGGAUAUACAUGAGGAUCACCCAUGUGAGGAGGAAGAGAGAGGAGAAGGAGUAGAAGGGUCAGAGG [JR_Exclu3_Sub028] (puzzle: Exclusion 3)" category_label="Criterion not met"
record_sequence="GAGAAACAUGAGGAUCACCCAUGUGAGGAUAUGAAAAAGAAAAGAAAAGAAAGAAGAAUCAGAAGGCACAAAGG [salish99-ex1_r3_078] (puzzle: Exclusion 1)" category_label="Criterion not met"
record_sequence="CUUAAGGCAGGAUAUGCUGUUUGUGACAUGAGGAUCACCCAUGUGAUGCAGUUUGGGUGUGCAGAAGGGCCUGAGU [JR_E5_Sub032] (puzzle: Exclusion 5)" category_label="Criterion met"
record_sequence="CUUCUCAGAGGAUAUCACGGUAAUAACAUGAGGAUCACCCAUGUGGAAUUCGUGUCCCUGUGAGAAGGCUGAGAAG [Bezavere] (puzzle: Exclusion 5)" category_label="Criterion not met"
record_sequence="UUUUAACAUGAGGAUCACCCAUGUGAGGAUAUGAUUUUUUUUUUUUUUUUUUUUUUUUUCAGAAGGCACAUUUU [My solution] (puzzle: Exclusion 1)" category_label="Criterion not met"
record_sequence="AGAAGUAGAAACCGAUCCUACAUGAGGAUCACCCAUGUAGCAAGACGUGCACGCGAAGCUCGUCAGACUACCAGAAC [salish99_TOv1_r3_008] (puzzle: Sensor v3, turn-off variant 1)" category_label="Criterion met"
record_sequence="GGUCAAGGACAGCUCCGCGCUGCCCUUGACCGCUCAUUUACAUGAGGAUCACCCAUGUUUUUUGCUUGUCUUGUUUC [Atedorgela] (puzzle: Sensor v3, turn-off variant 2)" category_label="Criterion not met"
record_sequence="GGUACUAACACGAUAGUGUUAGUACUAUAAGCUUGUGUUACAUGAGGAUCACCCAUGUCCUCAUAGGCUCGUCUUAG [Mat - Sensor v3 - Turn-off var 2 - D85] (puzzle: Sensor v3, turn-off variant 2)" category_label="Criterion met"
record_sequence="UAACCUAUUGUCAGGAUAUCUACGUGGUAUCAUGAGGAGAAGGGACAUGAGGAUCACCCAUGUGGAAGGGAAAA [Beques] (puzzle: Brourd's mod of Exclusion 4)" category_label="Criterion met"
record_sequence="AGUAACCGUCACGAAAGUGAUGGUUACACAAGCAAAUGUACAUGAGGAUCACCCAUGUCCUCAUUUGUUCGUCUUAU [Sensor 3 - 47] (puzzle: Sensor v3, turn-off variant 2)" category_label="Criterion met"
record_sequence="GGUCAAGAACAGCGCCGCGCUGCCCUUGACCGCUCAUUUACAUGAGGAUCACCCAUGUUUUUUGCUUGUCUUGUUUC [Tiordiri] (puzzle: Sensor v3, turn-off variant 2)" category_label="Criterion not met"
record_sequence="UUUAAUUUUUUUUUUUUACAAGCUUUUUGCUCGUCUUAUACAUGAGGAUCACCCAUGUAGGUGAAGAGUAAAUUAUC [JMF 58] (puzzle: Sensor v3, turn-off variant 2)" category_label="Criterion not met"
record_sequence="AGGGAUAAAGGAUAUACAUGAGGAUCACCCAUGUUGAGGAAAGUGAGAUGAGGAGGAAGUAGAAGGUUAGGCGA [JR_Exclu3_Sub085] (puzzle: Exclusion 3)" category_label="Criterion not met"
record_sequence="GGUUGUUGUUUCCGUUCUUACAUGAGGAUCACCCAUGUUUCUUGUCGUGCUCGCGUUGCUCGUCUGUCUGUCUGUUG [salish99_TOv1_r3_072] (puzzle: Sensor v3, turn-off variant 1)" category_label="Criterion met"

====

# Test system: MS2 coat protein
# EXPERIMENT SUMMARY: apparent KD of MS2 coat protein; designed switch direction (-1 OFF switch, 1 ON switch): -1; higher = weaker reporter binding
# EXPERIMENTAL CONTEXT: Eterna round: R95; input ligand: microRNA oligo, concentration not stated
# Lookup of reported apparent KD of MS2 coat protein keyed by entry
REPORTED METRIC: apparent KD of MS2 coat protein (µM)

record_sequence="CAGGAUAGAGGAUAUGCAUAGAUACAGAUUCAUGUAAUCCUACAUGAGGAUCACCCAUGUAGAAGGCUAUCCUG [Fiskers Ex 2 - 17] (puzzle: Exclusion 2)" reported_metric="apparent KD of MS2 coat protein" val=0.0147
record_sequence="UUGCUACCUUGGUACUCUACAAGCUUUUUGCUCGUUUUAACAUGAGGAUCACCCAUGUCUAGUGGAUCUGAUCGGGU [JL ViennaUCT Isreen mod 3] (puzzle: Sensor v3, turn-off variant 2)" reported_metric="apparent KD of MS2 coat protein" val=0.197
record_sequence="CUACUCGUUGUGAGGAUAUCGUUUUCGUCACGGAUCGAGAAGGCACAUGAGGAUCACCCAUGUUUGAUGUGGAU [JR_BMOE4_Sub091] (puzzle: Brourd's mod of Exclusion 4)" reported_metric="apparent KD of MS2 coat protein" val=0.0309
record_sequence="CUGGUGUGAGGAUAUCAGGACACGUACGCGGGCAUGUCAAAUGAGAAGGCACAUGAGGAUCACCCAUGUGGGAC [Geve] (puzzle: Exclusion 4)" reported_metric="apparent KD of MS2 coat protein" val=0.026

====

# Test system: K4 kissing-loop RNA reporter;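 note: bound reporter read as fluorescence of individual clusters on recovered sequencing chips by microscopy, with normalized cluster intensities fitted with a binding model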
# EXPERIMENT SUMMARY: apparent KD of K4 kissing-loop reporter; higher = weaker reporter binding
# EXPERIMENTAL CONTEXT: Eterna round: R107; input ligand: arginine 13.2 mM
REPORTED METRIC: apparent KD of K4 kissing-loop reporter (nM)

record_sequence="UUACUACCCAGUGAUGUUGGGUAGCGGCGGCGAGGACCGGUACGGCCGCCACUCGGCGCACGGGAGUGAUGUUCCUAAGAAUAAA [Same State Tryptophan A GF 9]" reported_metric="apparent KD of K4 kissing-loop reporter" units=nM val=306
record_sequence=UGAUAGGACAGAAGGAGCGGAAGUGAUGUUUCCAAAAGGGUAAGGUGUCAAAAGACACCCUUCCAGGUAGGUCGCUGUCCUAUCU reported_metric="apparent KD of K4 kissing-loop reporter" units=nM val=109
record_sequence="AGCUAGUGAAACUAGUUUAAACUAGGUGAAGGAGCGAUCGAAAGAUCAGGUAGGUCGCACCUAACUGAGUGAUGUUCAGGAAAUA [KL-SSArg-A4]" reported_metric="apparent KD of K4 kissing-loop reporter" units=nM val=54.3
record_sequence="AGAGUCGGCUGUGAUACCAGUCGUAUUACAACAUGUCGCAGUGAUGUUGCGAGAUAGGAUGACCCUUGGCAGCACUCAGUACGAU [Same State Theophylline B GF 8]" reported_metric="apparent KD of K4 kissing-loop reporter" units=nM val=277
record_sequence="GCAGUGAUGUUGCUGAUGUACAGUGGGAUACGAGGACCGGUACGGCCGCCACUCGUACAGAACUUAUUAAUACAUCGAUAAGUGA [XIV]" reported_metric="apparent KD of K4 kissing-loop reporter" units=nM val=612
record_sequence="UCUGUUGUAUAUGAUACCAGCAGUGAGAGAUGAGAAGUAUAGUGAUGUUAUAUGAGUGAAUGCCCUUGGCAGCGUGUGCGUGUGG [SSTheophylB.aD]" reported_metric="apparent KD of K4 kissing-loop reporter" units=nM val=112
record_sequence="UUAAGGGUCCGAGGAUAUCUCCCAGUGAUGUUGGGCGAUACGGCCCUUAAGACUAAUGGUUGAAGGAGAGAAGGCGGCUCCCGAU [Edmaisle]" reported_metric="apparent KD of K4 kissing-loop reporter" units=nM val=120
record_sequence="CGUUUAUAGCAGGAUACCAGUACCCAUAAAGUACGUUAAUAGUAGAGUGAUGUUCUAAAGUACCCUUGGCAGCUUCCCGUGAGUG [ExTheophylB.T]" reported_metric="apparent KD of K4 kissing-loop reporter" units=nM val=129
record_sequence="AACUGUCAAGGACAACAUUACUGAGGUGAUACCAGCAUCGAAAGAUGCCCUUGGCAGCACCGACUUGCAGUGAUGUUGCAAGUAA [BrourdMod 11 - Jieux - Exclusion - Theophylline A]" reported_metric="apparent KD of K4 kissing-loop reporter" units=nM val=219
record_sequence="CGGCGGAGUGAUGUUCUGCUCGCUCCGGAUACCAGCUUCGCCAGAGGCCCUUGGCAGCCGGGCGGCCCAGUGAUGUUGGGUUGCG [Same State Theophylline A GF 17]" reported_metric="apparent KD of K4 kissing-loop reporter" units=nM val=243
record_sequence="GGAAAGCCAGUGAUGUUGGCAUAAACUGAAGGAGCGCGUGAAAACGCAGGUAGGUCGCAGAACCUUGCCAACUAUAUUAUUUACC [Ex Arginine A K4 21]" reported_metric="apparent KD of K4 kissing-loop reporter" units=nM val=221
record_sequence="AAGCAGUCUCUUGUAGUCAUCGAAGAUGAACGAGGACCGGUACGGCCGCCACUCGGAGUGAUGUUCCGAAGGCUGCAAAAUAAAA [MatMod 18 - Jieux - Exclusion - Tryptophan A]" reported_metric="apparent KD of K4 kissing-loop reporter" units=nM val=297
record_sequence=ACUAUCGAAAGAUAGUUCCCAGAGCUAGUAGAGGAUAUCUGGAAACAGAGAAGGCUACAAGAGUGAUGUUCUUCUAGCUUUGGGA reported_metric="apparent KD of K4 kissing-loop reporter" units=nM val=291
record_sequence="UUUUUAUGCAGUGAUGUUGCUAAUAUAACAGAGGAUAUGCAUUAAAGCAGAAGGCUGAAAUACUAUACUUUAAUAAAUUAAAUUU [JR_SSFMNA_Sub013]" reported_metric="apparent KD of K4 kissing-loop reporter" units=nM val=136
record_sequence="AAAUUUAUAUUAGAUACCAGCAUAUUGAAAGUUUAUUAUGACAAGAGUGAUGUUCUUGUAUGCCCUUGGCAGCUGGUAUGGGUUU [KL-XTheo-B25]" reported_metric="apparent KD of K4 kissing-loop reporter" units=nM val=107
record_sequence=UGGAGUUGACGAAAAGUCAACUCCCGAGAAGGAGCGGACGAAAGUCCAGGUAGGUCGCUCGCUACCAGUGAUGUUGGUACGUAAA reported_metric="apparent KD of K4 kissing-loop reporter" units=nM val=143
record_sequence="UGUACCGAGUCAGGAUAUGGCGUCGAAAGACGAAUCCUAGUGAUGUUAGUGAUCUGCGAAAGCAGUCCAGAAGGGACUUGGUACU [FmnBS 26 U50]" reported_metric="apparent KD of K4 kissing-loop reporter" units=nM val=321
record_sequence="GUAUCGCUAGGAGGAUAUUUCAAUUUGACUCUUUGAGUUUUUACGGAGUGAUGUUCCGUUUUACGGAAAGAAGGCCUAGUGAUAC [FMN B 15]" reported_metric="apparent KD of K4 kissing-loop reporter" units=nM val=138
record_sequence="UGUGUUGUUUUGAUGUUUGUUGUAAAAUGGCAGGAUAUCGUAGAGGCGAGAAGGGCUUUUAUGCGUUAUGAGUGAUGUUUGUAGG [zvvczmullin]" reported_metric="apparent KD of K4 kissing-loop reporter" units=nM val=283
